Sequence of the target: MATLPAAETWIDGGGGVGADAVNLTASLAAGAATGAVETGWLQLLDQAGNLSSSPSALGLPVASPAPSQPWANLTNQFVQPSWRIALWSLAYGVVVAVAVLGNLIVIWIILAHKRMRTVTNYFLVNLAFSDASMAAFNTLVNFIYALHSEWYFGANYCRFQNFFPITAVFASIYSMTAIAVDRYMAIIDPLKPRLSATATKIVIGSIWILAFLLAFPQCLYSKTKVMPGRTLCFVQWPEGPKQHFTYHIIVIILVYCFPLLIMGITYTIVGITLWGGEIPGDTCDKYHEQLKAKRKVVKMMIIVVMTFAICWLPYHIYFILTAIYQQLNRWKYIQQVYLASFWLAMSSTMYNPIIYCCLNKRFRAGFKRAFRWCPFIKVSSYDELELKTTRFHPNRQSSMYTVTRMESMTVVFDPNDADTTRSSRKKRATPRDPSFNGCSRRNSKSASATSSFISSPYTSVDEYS
Literature-derived pKi for the protein given by its sequence follows.
Note on pKi: it is the negative log10 of concentration, concentration in mol/L.

Illustrative cases are given below, each with its answer.
molecule="CC(C)(C(N)=O)C1CCN(CCC2(c3ccc(Cl)c(Cl)c3)CN(C(=O)Cc3cc(C(F)(F)F)cc(C(F)(F)F)c3)CCO2)CC1 (centres undefined)" metric_name=pKi reported_measurement=6.69
molecule="CC(=O)NC1(c2ccccc2)CCN(CCC(CN(C)C(=O)c2ccccc2)c2ccc(Cl)c(Cl)c2)CC1 (centres undefined)" metric_name=pKi reported_measurement=6.15

Look up pKi for this molecule: CNC(=O)CC1CCCN(C2CCN(CC[C@@H](/C(CN(C)C(=O)c3cc(Cl)cc(Cl)c3)=N/OC)c3ccc(Cl)c(Cl)c3)CC2)C1=O (some centres undefined)
9.52
